Target: T1, Mouse BSSL, recombinant (mouse, UniProt Q64285 21-599)
T1 construct: Bought (R&D Systems, Cat. no 5658-CE); also called mBSSL; murine BSSL
T1 sequence: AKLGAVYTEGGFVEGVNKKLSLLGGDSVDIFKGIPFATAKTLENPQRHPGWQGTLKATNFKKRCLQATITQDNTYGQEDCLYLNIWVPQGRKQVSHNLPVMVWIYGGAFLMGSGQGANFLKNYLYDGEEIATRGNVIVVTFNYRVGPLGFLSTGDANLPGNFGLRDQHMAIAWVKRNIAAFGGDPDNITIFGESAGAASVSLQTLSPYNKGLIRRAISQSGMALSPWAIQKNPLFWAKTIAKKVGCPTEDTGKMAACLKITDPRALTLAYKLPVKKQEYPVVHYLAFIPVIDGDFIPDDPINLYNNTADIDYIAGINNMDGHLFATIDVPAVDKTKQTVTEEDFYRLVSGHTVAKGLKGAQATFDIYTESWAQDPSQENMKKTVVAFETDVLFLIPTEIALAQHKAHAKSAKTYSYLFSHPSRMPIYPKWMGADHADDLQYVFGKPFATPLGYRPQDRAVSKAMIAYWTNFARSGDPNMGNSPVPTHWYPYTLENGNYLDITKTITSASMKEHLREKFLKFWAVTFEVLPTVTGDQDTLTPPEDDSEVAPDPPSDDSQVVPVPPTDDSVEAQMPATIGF
Test: SPR steady state, hIgG4 S228P captured by anti-Fab
pKd: −log10 of the molar value.
measurement_kind: pKd

[[record]]
binder = "S-SL048-110 hIgG4 S228P (antibody, V domains shown, Tested as human IgG4 S228P) VH: QVQLVQSGAEVKKPGASVKVSCKASGYTFTSYNMHWVRQAPGQGLEWMGVINPGDGATSYNQKFKGRVTMTRDTSTSTVYMELSSLRSEDTAVYYCARDYYGSSPLGYWGQGTLVTVSS VL: DIQMTQSPSSLSASVGDRVTITCSASQSISYLHWYQQKPGKAPKLLIYAASRLASGVPSRFSGSGSGTDFTLTISSLQPEDFATYYCHQRSSTPTFGQGTKLEIK"
numeric_readout = 6.77

